Biological target: BAF3-KIF5B-RET cells (Homo sapiens, UniProt P07949)
Construct: fused on or other part: P33176 (Kinesin-1 heavy chain)
Sequence (P07949 whole entry, change not shown, the tested form may be a part): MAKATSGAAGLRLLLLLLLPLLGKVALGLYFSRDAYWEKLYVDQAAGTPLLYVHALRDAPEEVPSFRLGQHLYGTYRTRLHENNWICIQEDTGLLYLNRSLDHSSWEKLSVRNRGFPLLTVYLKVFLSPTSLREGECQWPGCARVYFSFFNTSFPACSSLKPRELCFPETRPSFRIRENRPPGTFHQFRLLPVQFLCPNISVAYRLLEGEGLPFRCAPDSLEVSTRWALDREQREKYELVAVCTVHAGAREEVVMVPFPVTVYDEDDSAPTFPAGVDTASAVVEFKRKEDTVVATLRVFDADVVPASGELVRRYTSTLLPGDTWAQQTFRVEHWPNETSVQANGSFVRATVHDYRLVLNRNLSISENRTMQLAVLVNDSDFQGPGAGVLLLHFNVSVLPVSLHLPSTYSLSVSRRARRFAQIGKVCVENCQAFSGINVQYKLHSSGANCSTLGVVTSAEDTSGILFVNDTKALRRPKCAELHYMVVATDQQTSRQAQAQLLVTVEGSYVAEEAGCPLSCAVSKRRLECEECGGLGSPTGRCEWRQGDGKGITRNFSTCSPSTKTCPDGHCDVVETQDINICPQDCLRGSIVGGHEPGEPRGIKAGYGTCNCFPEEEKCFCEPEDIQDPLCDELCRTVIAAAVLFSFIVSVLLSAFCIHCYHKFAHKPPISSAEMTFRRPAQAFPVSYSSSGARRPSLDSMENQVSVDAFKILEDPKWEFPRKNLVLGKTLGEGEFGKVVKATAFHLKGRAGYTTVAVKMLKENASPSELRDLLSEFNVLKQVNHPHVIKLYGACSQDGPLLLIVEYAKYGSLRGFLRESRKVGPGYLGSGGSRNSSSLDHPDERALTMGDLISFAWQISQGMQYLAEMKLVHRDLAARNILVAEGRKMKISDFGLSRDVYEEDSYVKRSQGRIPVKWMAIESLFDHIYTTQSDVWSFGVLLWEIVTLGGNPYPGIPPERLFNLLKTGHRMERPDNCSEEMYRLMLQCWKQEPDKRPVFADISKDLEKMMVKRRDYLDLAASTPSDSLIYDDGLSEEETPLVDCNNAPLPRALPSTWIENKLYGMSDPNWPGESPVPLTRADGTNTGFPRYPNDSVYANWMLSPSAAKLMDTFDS
Test: BAF3-KIF5B-RET Cell Proliferation Assay (CellTiter-Glo)
Assay type: cell-based
Details: growth inhibition, 72 hours; Table 2; read-out: BA/F3-KIF5B-RET Cellular activity
Procedure: Compounds disclosed herein were tested for the inhibition of RET by a cancer cell proliferation assay commonly known as CellTiter-Glo assay. […] Record luminescence on Paradigm. Cell viability (CV %) was calculated relative to vehicle (DMSO) treated control wells. The IC50 was calculated using GraphPad Prism.

COMPOUND: COc1ccc(C(=O)NC23CC4CC(C2)N(c2cnc(-c5cc(-c6ccc(C(C)(C)O)cn6)cn6ncc(C#N)c56)cn2)C(C4)C3)cn1 [Example 2]
MEASURED_ON: BAF3-KIF5B-RET cells (Homo sapiens, UniProt P07949)
GI50: 8.9 nM

COMPOUND: COc1ccc(CN2C3CC2CN(c2ccc(-c4cc(-c5cc(C(C)(C)O)nn5C)cn5ncc(C#N)c45)cn2)C3)cn1 [Example 26]
MEASURED_ON: BAF3-KIF5B-RET cells (Homo sapiens, UniProt P07949)
GI50: 46.8 nM

COMPOUND: CC(C)(O)c1ccc(-c2cc(-c3ccc(N4C[C@@H]5[C@H](C4)[C@@H]5NC(=O)c4ncccc4Cl)nc3)c3c(C#N)cnn3c2)nc1 [Example 3]
MEASURED_ON: BAF3-KIF5B-RET cells (Homo sapiens, UniProt P07949)
GI50: 110 nM

COMPOUND: COc1ccc(CN2C3CC2CN(c2ccc(-c4cc(-c5ccc(C6(N)CC6)cn5)cn5ncc(C#N)c45)cn2)C3)cn1 [Example 17]
MEASURED_ON: BAF3-KIF5B-RET cells (Homo sapiens, UniProt P07949)
GI50: 4.2 nM

COMPOUND: CC(C)(O)c1ccc(-c2cc(-c3cnc(N4C5CC6CC4CC(NC(=O)c4ncccc4Cl)(C6)C5)cn3)c3c(C#N)cnn3c2)nc1 [Example 18]
MEASURED_ON: BAF3-KIF5B-RET cells (Homo sapiens, UniProt P07949)
GI50: 0.7 nM

COMPOUND: COc1ccc(CN2C3CC2CN(c2cnc(-c4cc(-c5ccc(C(C)(C)O)nn5)cn5ncc(C#N)c45)cn2)C3)cn1 [Example 20]
MEASURED_ON: BAF3-KIF5B-RET cells (Homo sapiens, UniProt P07949)
GI50: 6.7 nM

COMPOUND: COc1ccc(CN2C3CC2CN(c2ccc(-c4cc(-c5ccc(C6(O)CC6)cn5)cn5ncc(C#N)c45)cn2)C3)cn1 [Example 11]
MEASURED_ON: BAF3-KIF5B-RET cells (Homo sapiens, UniProt P07949)
GI50: 0.9 nM

COMPOUND: COc1ccc(CN2C3CC2CN(c2ccc(-c4cc(-c5cnn(CC(C)(C)O)c5)cn5ncc(C#N)c45)cn2)C3)cn1 [Example 35]
MEASURED_ON: BAF3-KIF5B-RET cells (Homo sapiens, UniProt P07949)
GI50: 0.5 nM

COMPOUND: COc1ccc(CN2C3CC2CN(c2ccc(-c4cc(-c5ccc(C(C)(C)O)cn5)cn5ncc(C#N)c45)cn2)C3)cn1 [Example 9]
MEASURED_ON: BAF3-KIF5B-RET cells (Homo sapiens, UniProt P07949)
GI50: 0.6 nM

COMPOUND: COc1ccc(CN2C3CC2CN(c2ccc(-c4cc(-c5ccc(S(N)(=O)=O)cn5)cn5ncc(C#N)c45)cn2)C3)cn1 [Example 36]
MEASURED_ON: BAF3-KIF5B-RET cells (Homo sapiens, UniProt P07949)
GI50: 16.6 nM

COMPOUND: COc1ccc(CN2C3CC2CN(c2ccc(-c4cc(-c5cnc(C(C)(C)O)cn5)cn5ncc(C#N)c45)cn2)C3)cn1 [Example 15]
MEASURED_ON: BAF3-KIF5B-RET cells (Homo sapiens, UniProt P07949)
GI50: 3.9 nM

COMPOUND: CC(C)(O)c1ccc(-c2cc(-c3ccc(N4C[C@@H]5[C@H](C4)[C@H]5NC(=O)c4ncccc4Cl)nc3)c3c(C#N)cnn3c2)nc1 [Example 21]
MEASURED_ON: BAF3-KIF5B-RET cells (Homo sapiens, UniProt P07949)
GI50: 28.8 nM

COMPOUND: COc1ccc(CN2C3CC2CN(c2ccc(-c4cc(-c5cnc(C(C)(C)O)nc5)cn5ncc(C#N)c45)cn2)C3)cn1 [Example 10]
MEASURED_ON: BAF3-KIF5B-RET cells (Homo sapiens, UniProt P07949)
GI50: 30.5 nM

* * *

Biological target: BAF3-KIF5B-RET cells (Homo sapiens, UniProt P07949)
Construct: fused on or other part: P33176 (Kinesin-1 heavy chain)
Assay: BAF3-KIF5B-RET Cell Proliferation Assay (CellTiter-Glo)
Format: cell-based
Conditions: growth inhibition, 72 hours; Table 2; read-out: BA/F3-KIF5B-RET Cellular activity

COMPOUND: COc1ccc(CN2C3CC2CN(c2ccc(-c4cc(-c5ccc(C(C)(C)O)nn5)cn5ncc(C#N)c45)cn2)C3)cn1 [Example 19]
MEASURED_ON: BAF3-KIF5B-RET cells (Homo sapiens, UniProt P07949)
GI50 / nM: 1.7
--
COMPOUND: CC(C)(O)c1ccc(-c2cc(-c3ccc(N4C5CC6CC4CC(NC(=O)c4ncccc4Cl)(C6)C5)nc3)c3c(C#N)cnn3c2)nc1 [Example 23]
MEASURED_ON: BAF3-KIF5B-RET cells (Homo sapiens, UniProt P07949)
GI50 / nM: 0.5
--
COMPOUND: COc1ccc(CN2C3CC2CN(c2cnc(-c4cc(-c5ccc(C(C)(C)O)cn5)cn5ncc(C#N)c45)cn2)C3)cn1 [Example 1]
MEASURED_ON: BAF3-KIF5B-RET cells (Homo sapiens, UniProt P07949)
GI50 / nM: 1.8
--
COMPOUND: COc1ccc(CN2C3CC2CN(c2ccc(-c4cc(-c5ccc(OCC(C)(C)O)nc5)cn5ncc(C#N)c45)cn2)C3)cn1 [Example 33]
MEASURED_ON: BAF3-KIF5B-RET cells (Homo sapiens, UniProt P07949)
GI50 / nM: 5.1
--
COMPOUND: COc1ccc(CN2C3CC2CN(c2ccc(-c4cc(-c5ncc(C(C)(C)O)cn5)cn5ncc(C#N)c45)cn2)C3)cn1 [Example 13]
MEASURED_ON: BAF3-KIF5B-RET cells (Homo sapiens, UniProt P07949)
GI50 / nM: 2.2

* * *

System: human RET kinase (Homo sapiens) | Read-out: IC50
Sequence (P07949 29-1114): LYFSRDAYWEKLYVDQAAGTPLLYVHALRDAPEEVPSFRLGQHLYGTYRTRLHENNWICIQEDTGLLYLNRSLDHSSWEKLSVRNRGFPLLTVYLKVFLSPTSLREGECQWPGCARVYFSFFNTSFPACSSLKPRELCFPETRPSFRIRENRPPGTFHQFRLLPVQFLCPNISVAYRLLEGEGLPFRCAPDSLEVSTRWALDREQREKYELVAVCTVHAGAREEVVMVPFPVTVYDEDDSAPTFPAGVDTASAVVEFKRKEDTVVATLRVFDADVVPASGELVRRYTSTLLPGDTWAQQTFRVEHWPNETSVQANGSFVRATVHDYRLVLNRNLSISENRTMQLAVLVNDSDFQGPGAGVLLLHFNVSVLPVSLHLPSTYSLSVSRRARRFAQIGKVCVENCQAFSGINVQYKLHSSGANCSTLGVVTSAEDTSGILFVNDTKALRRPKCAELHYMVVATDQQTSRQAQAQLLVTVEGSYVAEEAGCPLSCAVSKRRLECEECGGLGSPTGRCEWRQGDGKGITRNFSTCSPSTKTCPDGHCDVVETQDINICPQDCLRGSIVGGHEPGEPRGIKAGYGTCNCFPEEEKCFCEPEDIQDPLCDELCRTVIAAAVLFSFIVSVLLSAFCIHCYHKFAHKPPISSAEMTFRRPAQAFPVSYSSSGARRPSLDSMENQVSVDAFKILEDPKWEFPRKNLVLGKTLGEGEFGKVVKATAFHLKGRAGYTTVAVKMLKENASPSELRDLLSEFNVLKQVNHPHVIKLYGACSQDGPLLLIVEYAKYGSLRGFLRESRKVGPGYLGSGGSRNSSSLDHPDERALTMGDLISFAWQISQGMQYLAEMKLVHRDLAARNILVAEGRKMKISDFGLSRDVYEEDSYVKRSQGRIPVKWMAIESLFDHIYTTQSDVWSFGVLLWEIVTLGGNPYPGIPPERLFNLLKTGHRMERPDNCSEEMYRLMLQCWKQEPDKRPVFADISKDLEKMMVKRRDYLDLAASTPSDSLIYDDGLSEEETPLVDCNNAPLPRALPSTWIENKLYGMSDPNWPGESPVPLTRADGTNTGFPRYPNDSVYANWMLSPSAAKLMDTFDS
EXPERIMENTAL_READOUT: IC50 (nM)

COMPOUND: COc1ccc(CN2C3CC2CN(c2ccc(-c4cc(-c5ncc(C(C)(C)O)cn5)cn5ncc(C#N)c45)cn2)C3)cn1 [Example 13]
EXPERIMENTAL_READOUT: IC50
UNIT_OF_MEASURE: nM
VAL: 0.4
//
COMPOUND: COc1ccc(CN2C3CC2CN(c2ccc(-c4cc(-c5ccc(C(C)(C)O)nc5)cn5ncc(C#N)c45)cn2)C3)cn1 [Example 8]
EXPERIMENTAL_READOUT: IC50
UNIT_OF_MEASURE: nM
VAL: 0.38
//
COMPOUND: COc1ccc(CN2C3CC2CN(c2ccc(-c4cc(-c5cc(C(C)(C)O)n(C)n5)cn5ncc(C#N)c45)cn2)C3)cn1 [Example 4]
EXPERIMENTAL_READOUT: IC50
UNIT_OF_MEASURE: nM
VAL: 0.67
//
COMPOUND: COc1ccc(CN2C3CC2CN(c2ccc(-c4cc(-c5cnc(C(C)(C)O)nc5)cn5ncc(C#N)c45)cn2)C3)cn1 [Example 10]
EXPERIMENTAL_READOUT: IC50
UNIT_OF_MEASURE: nM
VAL: 3.5

* * *

Biological target: BAF3-KIF5B-RET cells (Homo sapiens)
Construct: fused on or other part: P33176 (Kinesin-1 heavy chain)
Assay: BAF3-KIF5B-RET Cell Proliferation Assay (CellTiter-Glo)
Assay type: cell-based
Conditions: growth inhibition, 72 hours; Table 2; read-out: BA/F3-KIF5B-RET Cellular activity
Classes by GI50: label 0 = under 1 nM, label 1 = from 1 nM up to 3 nM, label 2 = 3 nM and over

MOLECULE_SMILES: COc1ccc(CN2C3CC2CN(c2ccc(-c4cc(-c5cncc(C(C)(C)O)c5)cn5ncc(C#N)c45)cn2)C3)cn1
ASSIGNED_CATEGORY: label 2
//
MOLECULE_SMILES: COc1ccc(CN2C3CC2CN(c2ccc(-c4cc(-c5ccc(OCC(C)(C)O)cn5)cn5ncc(C#N)c45)cn2)C3)cn1
ASSIGNED_CATEGORY: label 1
//
MOLECULE_SMILES: COc1ccc(CN2C3CC2CN(c2ccc(-c4cc(-c5ncc(C(C)(C)O)cc5F)cn5ncc(C#N)c45)cn2)C3)cn1
ASSIGNED_CATEGORY: label 2
//
MOLECULE_SMILES: COc1ccc(CN2C3CC2CN(c2ccc(-c4cc(-c5ccc(C(C)(C)O)cc5)cn5ncc(C#N)c45)cn2)C3)cn1
ASSIGNED_CATEGORY: label 0
//
MOLECULE_SMILES: COc1ccc(CN2C3CC2CN(c2ccc(-c4cc(-c5ccc(C(C)(C)N)nc5)cn5ncc(C#N)c45)cn2)C3)cn1
ASSIGNED_CATEGORY: label 1
//
MOLECULE_SMILES: COc1ccc(C(=O)N2C3CC2CN(c2ccc(-c4cc(-c5ccc(C(C)(C)O)cn5)cn5ncc(C#N)c45)cn2)C3)cn1
ASSIGNED_CATEGORY: label 1
//
MOLECULE_SMILES: COc1ccc(CN2C3CC2CN(c2ccc(-c4cc(-c5ccc(C(C)(C)N)cn5)cn5ncc(C#N)c45)cn2)C3)cn1
ASSIGNED_CATEGORY: label 1
//
MOLECULE_SMILES: COc1ccc(CN2C3CC2CN(c2ccc(-c4cc(-c5ccc(C(C)(C)O)nc5)cn5ncc(C#N)c45)cn2)C3)cn1
ASSIGNED_CATEGORY: label 1
//
MOLECULE_SMILES: CC(C)(O)c1ccc(-c2cc(-c3cnc(N4C[C@@H]5C[C@@](C)(NC(=O)c6ncccc6Cl)C[C@@H]5C4)cn3)c3c(C#N)cnn3c2)nc1
ASSIGNED_CATEGORY: label 2
//
MOLECULE_SMILES: COc1ccc(CN2C3CC2CN(c2ccc(-c4cc(-c5ccc(C(C)(C)O)s5)cn5ncc(C#N)c45)cn2)C3)cn1
ASSIGNED_CATEGORY: label 0
//
MOLECULE_SMILES: COc1ccc(CN2C3CC2CN(c2ccc(-c4cc(-c5cc(C(C)(C)O)n(C)n5)cn5ncc(C#N)c45)cn2)C3)cn1
ASSIGNED_CATEGORY: label 0
//
MOLECULE_SMILES: CCC(=O)c1ccc(-c2cc(-c3ccc(N4CC5CC(C4)N5Cc4ccc(OC)nc4)nc3)c3c(C#N)cnn3c2)nc1
ASSIGNED_CATEGORY: label 1
